Provenance of the data: patent US8778966B2

- Study system: Human PARP-1 enzyme (Homo sapiens, UniProt P09874)
- Construct: purchased Trevigen
- Sequence (P09874 whole entry): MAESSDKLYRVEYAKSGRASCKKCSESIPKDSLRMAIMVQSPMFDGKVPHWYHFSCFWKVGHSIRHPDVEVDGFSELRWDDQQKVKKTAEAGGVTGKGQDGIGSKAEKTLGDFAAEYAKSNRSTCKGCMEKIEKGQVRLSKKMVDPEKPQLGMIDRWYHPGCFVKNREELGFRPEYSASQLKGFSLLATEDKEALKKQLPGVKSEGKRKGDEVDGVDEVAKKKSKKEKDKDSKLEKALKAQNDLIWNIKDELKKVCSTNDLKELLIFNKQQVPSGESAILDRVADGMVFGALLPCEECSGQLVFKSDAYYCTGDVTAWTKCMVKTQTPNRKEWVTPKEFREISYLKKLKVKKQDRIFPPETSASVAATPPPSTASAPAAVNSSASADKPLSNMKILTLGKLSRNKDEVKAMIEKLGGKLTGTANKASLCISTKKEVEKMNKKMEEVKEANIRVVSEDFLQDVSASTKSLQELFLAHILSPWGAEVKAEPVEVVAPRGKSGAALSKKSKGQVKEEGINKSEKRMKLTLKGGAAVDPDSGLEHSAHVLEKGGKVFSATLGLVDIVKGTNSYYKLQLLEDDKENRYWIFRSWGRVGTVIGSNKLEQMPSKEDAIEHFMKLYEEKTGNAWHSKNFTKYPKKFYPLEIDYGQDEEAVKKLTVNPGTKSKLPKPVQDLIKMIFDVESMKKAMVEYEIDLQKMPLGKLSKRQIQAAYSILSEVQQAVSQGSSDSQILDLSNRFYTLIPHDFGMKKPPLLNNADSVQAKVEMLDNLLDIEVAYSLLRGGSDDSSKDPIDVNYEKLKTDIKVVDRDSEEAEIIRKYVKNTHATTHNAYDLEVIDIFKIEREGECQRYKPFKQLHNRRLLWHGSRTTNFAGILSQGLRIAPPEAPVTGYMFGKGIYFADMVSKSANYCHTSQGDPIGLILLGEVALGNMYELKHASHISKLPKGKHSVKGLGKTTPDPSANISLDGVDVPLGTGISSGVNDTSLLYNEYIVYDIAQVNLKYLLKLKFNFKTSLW
- Assay overview: In vitro Scintillation Proximity Assay (SPA) for PARP-1 inhibitory activity
- Format: biochemical
- Test parameters: read-out: in vitro SPA assay PARP-1 pIC50 (converted)
Endpoint label: IC50 (nM)

CCc1cc2ccc(C(C)(C#N)Cc3cccc(C(=N)NO)c3)cc2[nH]c1=O (centres unmarked) = 39.8
CCc1cc2ccc(C(C)(C#N)Cc3cccc(C#N)n3)cc2[nH]c1=O (single isomer, unassigned) [Compound 207] = 39.8
CCc1cc2ccc(C(C)(C#N)Cc3nccn3CC)cc2[nH]c1=O (centres unmarked) = 398
CCc1cc2ccc(C(C)(C#N)Cc3nn(C)c4ccccc34)cc2[nH]c1=O (centres unmarked) = 251

[I] CCc1cc2ccc([C@@](C)(C#N)Cc3ccccc3)cc2[nH]c1=O (single isomer, unassigned)
[II] CCc1cc2c(OC)cc(C(C)(C#N)Cc3nc(OC)cc(OC)n3)cc2[nH]c1=O (single isomer, unassigned) [Compound 230]
[III] CCc1cc2ccc(C(C)(C#N)Cc3nc(Cl)cc(OCCOC)n3)cc2[nH]c1=O (centres unmarked)
[IV] CCc1cc2ccc(C(C)(C#N)Cc3cccc(OCCS(C)(=O)=O)c3)cc2[nH]c1=O (centres unmarked)
Inquiry: Ascending by IC50, please: list the molecules accordingly. The response must list the labels following the requested ordering.
Reply text: IV, II, III, I
